experiment: Selectivity ratio of GI50 for human Calu6 cells to GI50 for human NCI-H1975 cells; type: ADME, cell-based; conditions: Calu6 cells and NCI-H1975 cells, read-out: RatioGI50
value-type: selectivity ratio

selectivity ratio measured on C=CC(=O)Nc1cccc(-n2c(-c3nc(-c4cnn(C5CCN(C)CC5)c4)cnc3N)nc3ccccc32)c1 = > 60

====

test: Intrinsic clearance in human liver microsomes; type: ADME; conditions: read-out: CLH
Lab note: anything with microsomal CLint at or over 100 µL/min/mg counts as class 1; the rest go in class 0.

Query block: # check: microsomal CLint of C=CC(=O)Nc1cccc(-n2c(-c3nc(-c4cnn(C5CCN(C(=O)CN(C)C)CC5)c4)cnc3N)nc3ccccc32)c1 is greater than or equal to 100 µL/min/mg
Result block: class 0

Query block: # check: microsomal CLint of C=CC(=O)Nc1cccc(-n2c(-c3nc(-c4cnn(C)c4)cnc3N)nc3ccccc32)c1 is greater than or equal to 100 µL/min/mg
Result block: class 0

Query block: # check: microsomal CLint of C=CC(=O)Nc1cccc(-n2c(-c3nc(-c4cnn(CCO)c4)cnc3N)nc3ccccc32)c1 is greater than or equal to 100 µL/min/mg
Result block: class 0

Query block: # check: microsomal CLint of C=CC(=O)Nc1cccc(-n2c(-c3nc(-c4cnn(C5CCN(C(C)=O)CC5)c4)cnc3N)nc3ccccc32)c1 is greater than or equal to 100 µL/min/mg
Result block: class 1

Query block: # check: microsomal CLint of C=CC(=O)Nc1cccc(-n2c(-c3nc(-c4cnn(C5CCN(C)CC5)c4)cnc3N)nc3ccccc32)c1 is greater than or equal to 100 µL/min/mg
Result block: class 1

Query block: # check: microsomal CLint of C=CC(=O)Nc1cccc(-n2c(-c3nc(-c4cnn(C5CCN(C)CC5)c4)cnc3N)nc3cnccc32)c1 is greater than or equal to 100 µL/min/mg
Result block: class 1

Query block: # check: microsomal CLint of C=CC(=O)Nc1cccc(-n2c(-c3nc(-c4cnn(C5CCN(C(C)C)CC5)c4)cnc3N)nc3ccccc32)c1 is greater than or equal to 100 µL/min/mg
Result block: class 0

Query block: # check: microsomal CLint of C=CC(=O)Nc1cccc(-n2c(-c3nc(-c4cnn(C5CCN(CC)CC5)c4)cnc3N)nc3ccccc32)c1 is greater than or equal to 100 µL/min/mg
Result block: class 1
